# assay system: T1, DLL3 (target ligand immobilized on a SA sensor chip via streptavidin capture) (Homo sapiens (Human), UniProt Q9NYJ7 27-492, limits assumed)
# T1 sequence: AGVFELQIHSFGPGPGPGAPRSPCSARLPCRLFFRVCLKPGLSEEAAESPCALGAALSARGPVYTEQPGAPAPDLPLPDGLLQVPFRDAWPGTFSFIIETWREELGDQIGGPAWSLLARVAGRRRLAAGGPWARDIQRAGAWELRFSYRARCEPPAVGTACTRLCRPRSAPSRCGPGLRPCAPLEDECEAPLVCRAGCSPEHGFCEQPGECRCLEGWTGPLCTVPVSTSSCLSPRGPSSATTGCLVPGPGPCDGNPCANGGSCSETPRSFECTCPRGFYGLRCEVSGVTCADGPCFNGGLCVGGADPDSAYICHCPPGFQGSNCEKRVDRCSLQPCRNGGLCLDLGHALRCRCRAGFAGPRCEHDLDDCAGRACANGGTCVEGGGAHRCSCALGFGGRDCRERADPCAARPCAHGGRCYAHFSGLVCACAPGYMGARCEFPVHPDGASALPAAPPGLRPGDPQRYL
# method description: SPR, Biacore S200, target ligand on SA chip, 25 C, 1:1 fit
Bridges are numbered along the chain shown (N, C = ends).
parameter: Kd (nM)
# number only, unit nM dropped from output

Query string: Find the recorded Kd belonging to Ac-MWQLCEWNNCWPV-NH2 (disulfide 5-10; SMILES CSCC[C@H](NC(C)=O)C(=O)N[C@@H](Cc1c[nH]c2ccccc12)C(=O)N[C@@H](CCC(N)=O)C(=O)N[C@@H](CC(C)C)C(=O)N[C@H]1CSSC[C@@H](C(=O)N[C@@H](Cc2c[nH]c3ccccc23)C(=O)N2CCC[C@H]2C(=O)N[C@H](C(N)=O)C(C)C)NC(=O)[C@H](CC(N)=O)NC(=O)[C@H](CC(N)=O)NC(=O)[C@H](Cc2c[nH]c3ccccc23)NC(=O)[C@H](CCC(=O)O)NC1=O) [SEQ ID NO 74] and report it.
Result string: 110
